Assign max response to each entry below.
System: CRL-7250
method notes: Cytotoxic Profiling of Annotated Libraries Using Quantitative High-Throughput Screening (AID 1296008); note: % is set by controls: 0 for no effect and ±100 for the full control effect; nearly all actives have a fitted effect of over 60% in size
recorded conditions: Five cell lines viability, CellTiter-Glo ATP luminescence, 48-72 h; active compounds read low
Results filed as inconclusive are left out.
Write the value in % as a bare number.

What does the data say about its max response? Entry: O=C(Nc1ccc(Oc2ccc(Cl)cc2)c(Cl)c1)c1cc(I)cc(I)c1O
-12.5

What does the data say about its max response? Entry: Cc1cc(=O)n(-c2ccccc2)n1C
2.86

What does the data say about its max response? Entry: CCCOC(C(=O)OC1CCN(C)CC1)(c1ccccc1)c1ccccc1
-3.11

What does the data say about its max response? Entry: C#C[C@]1(O)CC[C@H]2[C@@H]3CCc4cc(OC5CCCC5)ccc4[C@H]3CC[C@@]21C
0.636

What does the data say about its max response? Entry: C[C@]12CC[C@H]3[C@@H](CCC4=CC(=O)CC[C@@]43C)[C@@H]1CC[C@@H]2C(=O)CO
-11.9

What does the data say about its max response? Entry: COc1ccc(C2C(=O)c3ccccc3C2=O)cc1
-6.18

What does the data say about its max response? Entry: Cc1ncc(CSSCc2cnc(C)c(O)c2CO)c(CO)c1O
-3.39

What does the data say about its max response? Entry: C=C(CC)C(=O)c1ccc(OCC(=O)O)c(Cl)c1Cl
-16.5

What does the data say about its max response? Entry: O=C(O)CNC(=O)c1ccccc1
2.85

What does the data say about its max response? Entry: CC(=O)Oc1ccc(C(c2ccc(OC(C)=O)cc2)c2ccccn2)cc1
-7.93

What does the data say about its max response? Entry: O=C1OC2(c3ccc(O)cc3Oc3cc(O)ccc32)c2ccccc21
-1.47

What does the data say about its max response? Entry: Cc1nc2n(c(=O)c1CCN1CCC(c3noc4cc(F)ccc34)CC1)CCC[C@H]2O
-3.73

What does the data say about its max response? Entry: CN(C)CC/C=C1/c2ccccc2COc2ccc(CC(=O)O)cc21
2.78

What does the data say about its max response? Entry: CC(=O)Oc1ccc2c(c1)CC[C@@H]1[C@@H]2CC[C@]2(C)[C@@H](O)CC[C@@H]12
-2.1

What does the data say about its max response? Entry: CC1(C)O[C@@H]2C[C@H]3[C@@H]4CCC5=CC(=O)CC[C@]5(C)[C@@]4(F)[C@@H](O)C[C@]3(C)[C@]2(C(=O)CCl)O1
2.38

What does the data say about its max response? Entry: O=C(CCCN1CCC(O)(c2ccc(Br)cc2)CC1)c1ccc(F)cc1
2.7

What does the data say about its max response? Entry: COc1cccc(CCc2ccccc2OCC(CN(C)C)OC(=O)CCC(=O)O)c1 (configuration not stated)
3.68

What does the data say about its max response? Entry: CC(O)(P(=O)(O)O)P(=O)(O)O
0.923

What does the data say about its max response? Entry: CCCC(=O)O[C@]1(C(=O)CO)CC[C@H]2[C@@H]3CCC4=CC(=O)CC[C@]4(C)[C@H]3[C@@H](O)C[C@@]21C
-24.4

What does the data say about its max response? Entry: CCOC(=O)[C@H](CCc1ccccc1)N[C@@H](C)C(=O)N1Cc2ccccc2C[C@H]1C(=O)O
-9.56

What does the data say about its max response? Entry: O=C1c2ccccc2C(=O)C1c1ccccc1
-3.39

What does the data say about its max response? Entry: C[C@H](CCC(=O)O)[C@H]1CC[C@H]2[C@@H]3C(=O)C[C@@H]4CC(=O)CC[C@]4(C)[C@H]3CC(=O)[C@]12C
-5.31
